The origin of these recorded values is ChEMBL document CHEMBL4602625.

target: Cholesteryl ester transfer protein (Homo sapiens); experiment: Inhibition of human CETP at 10 uM relative to control
MEASURE NAME: inhibition (%)

* C[C@H]1[C@H](C)CC[C@]2(C(=O)O)CC[C@]3(C)C(=CC[C@@H]4[C@@]5(C)CC[C@H](OC(=O)c6cccc(C(=O)O)c6)C(C)(C)[C@@H]5CC[C@]43C)[C@H]12 | 61.8
* C[C@H]1[C@H](C)CC[C@]2(C(=O)O)CC[C@]3(C)C(=CC[C@@H]4[C@@]5(C)CC[C@H](OC(=O)c6ccc(C(=O)O)cc6)C(C)(C)[C@@H]5CC[C@]43C)[C@H]12 | 24.5
* C[C@H]1[C@H](C)CC[C@]2(C(=O)O)CC[C@]3(C)C(=CC[C@@H]4[C@@]5(C)CC[C@H](OC(=O)C6C(C(=O)O)C6(C)C)C(C)(C)[C@@H]5CC[C@]43C)[C@H]12 (stereo not given in full) | 9
* C[C@H]1[C@H](C)CC[C@]2(C(=O)O)CC[C@]3(C)C(=CC[C@@H]4[C@@]5(C)CC[C@H](OC(=O)CCCC(=O)O)C(C)(C)[C@@H]5CC[C@]43C)[C@H]12 | 55.1
* C[C@H]1[C@H](C)CC[C@]2(C(=O)O)CC[C@]3(C)C(=CC[C@@H]4[C@@]5(C)CC[C@H](OC(=O)CC6(CC(=O)O)CCCC6)C(C)(C)[C@@H]5CC[C@]43C)[C@H]12 | 0

* * *

Target protein (sequence): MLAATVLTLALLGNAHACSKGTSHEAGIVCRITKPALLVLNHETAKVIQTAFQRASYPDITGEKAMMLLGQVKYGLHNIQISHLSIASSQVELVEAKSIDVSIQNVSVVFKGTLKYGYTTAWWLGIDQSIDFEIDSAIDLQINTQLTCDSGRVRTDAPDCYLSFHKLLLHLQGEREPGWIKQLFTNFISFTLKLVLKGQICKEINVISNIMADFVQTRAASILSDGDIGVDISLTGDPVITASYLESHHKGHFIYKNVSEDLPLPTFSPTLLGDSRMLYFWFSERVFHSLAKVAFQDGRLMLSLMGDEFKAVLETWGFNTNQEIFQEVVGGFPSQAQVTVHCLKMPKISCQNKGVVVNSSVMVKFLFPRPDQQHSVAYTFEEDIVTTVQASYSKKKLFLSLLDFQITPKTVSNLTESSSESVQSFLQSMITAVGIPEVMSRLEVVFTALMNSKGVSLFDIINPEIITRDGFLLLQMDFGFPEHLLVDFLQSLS
Attribute: IC50
MEASURE NAME: IC50 (µM)

* C[C@H]1[C@H](C)CC[C@]2(C(=O)O)CC[C@]3(C)C(=CC[C@@H]4[C@@]5(C)CC[C@H](OC(=O)C6CC6C(=O)O)C(C)(C)[C@@H]5CC[C@]43C)[C@H]12 (stereo not given in full) | 2.4
* C[C@H]1[C@H](C)CC[C@]2(C(=O)O)CC[C@]3(C)C(=CC[C@@H]4[C@@]5(C)CC[C@H](OC(=O)c6ccccc6C(=O)O)C(C)(C)[C@@H]5CC[C@]43C)[C@H]12 | 5.5
* C[C@H]1[C@H](C)CC[C@]2(C(=O)O)CC[C@]3(C)C(=CC[C@@H]4[C@@]5(C)CC[C@H](OC(=O)CCCC(=O)O)C(C)(C)[C@@H]5CC[C@]43C)[C@H]12 | 3.2
* C[C@H]1[C@H](C)CC[C@]2(C(=O)O)CC[C@]3(C)C(=CC[C@@H]4[C@@]5(C)CC[C@H](OC(=O)CCC(=O)O)C(C)(C)[C@@H]5CC[C@]43C)[C@H]12 | 10.9

* * *

biological target: Cholesteryl ester transfer protein (Homo sapiens) (UniProt P11597); assay: Inhibition of human CETP at 10 uM relative to control
MEASURE NAME: inhibition (%)

• C[C@H]1[C@H](C)CC[C@]2(C(=O)O)CC[C@]3(C)C(=CC[C@@H]4[C@@]5(C)CC[C@H](OC(=O)CCC(=O)O)C(C)(C)[C@@H]5CC[C@]43C)[C@H]12 = 42.8
• C[C@H]1[C@H](C)CC[C@]2(C(=O)O)CC[C@]3(C)C(=CC[C@@H]4[C@@]5(C)CC[C@H](OC(=O)c6cccnc6)C(C)(C)[C@@H]5CC[C@]43C)[C@H]12 = 11.2
• C[C@H]1[C@H](C)CC[C@]2(C(=O)O)CC[C@]3(C)C(=CC[C@@H]4[C@@]5(C)CC[C@H](OC(=O)CC(C)(C)CC(=O)O)C(C)(C)[C@@H]5CC[C@]43C)[C@H]12 = 0

* * *

Attribute: inhibition
Biological target: UniProtKB P11597
Sequence (whole entry): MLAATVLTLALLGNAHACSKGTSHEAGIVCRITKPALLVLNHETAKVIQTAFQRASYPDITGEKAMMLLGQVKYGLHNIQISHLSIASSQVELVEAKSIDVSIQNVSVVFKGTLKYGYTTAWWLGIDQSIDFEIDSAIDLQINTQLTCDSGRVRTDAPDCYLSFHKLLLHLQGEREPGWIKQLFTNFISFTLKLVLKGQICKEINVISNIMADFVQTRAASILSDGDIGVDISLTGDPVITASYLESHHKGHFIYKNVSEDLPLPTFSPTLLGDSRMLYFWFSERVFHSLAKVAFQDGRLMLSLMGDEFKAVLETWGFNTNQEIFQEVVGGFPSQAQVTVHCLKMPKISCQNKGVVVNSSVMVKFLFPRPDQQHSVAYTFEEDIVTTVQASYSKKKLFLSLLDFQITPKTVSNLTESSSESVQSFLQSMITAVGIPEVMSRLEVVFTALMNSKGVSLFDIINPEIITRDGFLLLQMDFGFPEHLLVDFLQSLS
Assay: Inhibition of human CETP at 10 uM relative to control
MEASURE NAME: inhibition (%)

• C[C@H]1[C@H](C)CC[C@]2(C(=O)O)CC[C@]3(C)C(=CC[C@@H]4[C@@]5(C)CC[C@H](OC(=O)C6CC6C(=O)O)C(C)(C)[C@@H]5CC[C@]43C)[C@H]12 (stereo not given in full) = 53.2
• C[C@H]1[C@H](C)CC[C@]2(C(=O)O)CC[C@]3(C)C(=CC[C@@H]4[C@@]5(C)CC[C@H](OC(=O)CC6(CC(=O)O)CCCCC6)C(C)(C)[C@@H]5CC[C@]43C)[C@H]12 = 1.5
• C[C@H]1[C@H](C)CC[C@]2(C(=O)O)CC[C@]3(C)C(=CC[C@@H]4[C@@]5(C)CC[C@H](OC(=O)CCCCC(=O)O)C(C)(C)[C@@H]5CC[C@]43C)[C@H]12 = 23.3
• C[C@H]1[C@H](C)CC[C@]2(C(=O)O)CC[C@]3(C)C(=CC[C@@H]4[C@@]5(C)CC[C@H](OC(=O)CCCCCC(=O)O)C(C)(C)[C@@H]5CC[C@]43C)[C@H]12 = 11.1
• COc1cc(F)c(C(C)C)cc1-c1ccc(C(F)(F)F)cc1CN1C(=O)O[C@H](c2cc(C(F)(F)F)cc(C(F)(F)F)c2)[C@@H]1C = 88.4

* * *

Target: Cholesteryl ester transfer protein (Homo sapiens) (UniProt P11597)
Sequence (whole entry): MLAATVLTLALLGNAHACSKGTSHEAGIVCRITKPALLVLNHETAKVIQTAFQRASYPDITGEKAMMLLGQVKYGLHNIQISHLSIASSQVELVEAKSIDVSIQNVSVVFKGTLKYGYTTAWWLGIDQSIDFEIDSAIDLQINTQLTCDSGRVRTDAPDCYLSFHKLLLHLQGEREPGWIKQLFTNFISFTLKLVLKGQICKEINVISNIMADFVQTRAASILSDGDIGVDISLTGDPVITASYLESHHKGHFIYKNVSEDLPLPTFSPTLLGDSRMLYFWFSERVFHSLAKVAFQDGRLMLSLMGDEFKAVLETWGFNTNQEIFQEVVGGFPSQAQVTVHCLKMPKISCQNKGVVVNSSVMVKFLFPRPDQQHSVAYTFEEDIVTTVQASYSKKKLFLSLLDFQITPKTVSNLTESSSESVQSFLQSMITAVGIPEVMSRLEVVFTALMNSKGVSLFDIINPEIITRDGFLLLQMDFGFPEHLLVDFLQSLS
Assay: Inhibition of human CETP at 10 uM relative to control
MEASURE NAME: inhibition

• C[C@H]1[C@H](C)CC[C@]2(C(=O)O)CC[C@]3(C)C(=CC[C@@H]4[C@@]5(C)CC[C@H](OC(=O)c6ccccc6)C(C)(C)[C@@H]5CC[C@]43C)[C@H]12 = 22.7%
• C[C@H]1[C@H](C)CC[C@]2(C(=O)O)CC[C@]3(C)C(=CC[C@@H]4[C@@]5(C)CC[C@H](OC(=O)c6ccccc6C(=O)O)C(C)(C)[C@@H]5CC[C@]43C)[C@H]12 = 47.9%
• CC(CC(=O)O)CC(=O)O[C@H]1CC[C@]2(C)[C@H]3CC=C4[C@@H]5[C@@H](C)[C@H](C)CC[C@]5(C(=O)O)CC[C@@]4(C)[C@]3(C)CC[C@H]2C1(C)C (stereo partly drawn) = 1.1%
